assay: yeast display, Sf9 membrane polyspecificity reagent, FACS + sequencing; frameworks hold sequencing errors
endpoint: polyreactivity (PSR sort gate)

QVQLVESGGGLVQAGGSLRLSCAASGSIFAAYAMGWYRQAPGKERELVAAISDRGGSTYYADSVKGRFTISRDNAKNTVYLQMNSLKPEDTAVYYCATSVYDVRGGPFYYWGQGTQVTVSS :: high polyreactivity
QVQLVESGGGVVQAGGSLRLSCAASGGIFRRNAMGWYRQAPGKERELVAAITRSGASTYDADSVKGRFTISRDNAKYTVYLQMNSLKPEDTAVYYCADAQLSAEYDYWGQGTQVTVTS :: low polyreactivity
QVQLVESGGGLVKAGGSLRLSCAASGSTFDYYAMGWYRQAPGKERELVAAISGSGGSTYYADSVKGRFTISRDIAKNTVYLQMNSLKPEDTAVYYCATVRSRLFGQYYYWGQGTQVTVSS :: high polyreactivity
QVQLVESGGGLVQAGGSLRLSCAASGFTFYYNAMGWYRQAPGKERELVAAISTRGGNTYYADSVKGRFTISRDNAKNTVYLQMNSLKPEDTAVYYCARKIRREGRYDYWGQGTQVTVSS :: high polyreactivity

Read the next record carefully.
State the recorded polyreactivity (PSR sort gate) for this entry: `QVQLVESGGGLVQAGGSLRLSCAASGRTFLINAMGWYRQAPGKERELVAAINYGGGSTYYADSVKGRFTISRDNAKNTVYLQMKSLKPEDTAVYYCSTEYYDTYVGSYSYWGAKYGSWGQGTQVTVSS`
low polyreactivity

---

experiment: yeast display, Sf9 membrane polyspecificity reagent, FACS + sequencing; frameworks hold sequencing errors
endpoint: polyreactivity (PSR sort gate)

Guide cases for polyreactivity (PSR sort gate), answers given:
QVQLVESGGGLVHAGGSLRLSCAASGRIFLYYVMGWYRQAPGKERELVAAITSGGSTYYADSVKGRFTISRDNAKNTVYLQMNSLKPEDTAVYYCNKVSYYRNEYWGQGTQVTVSS :: high polyreactivity
QVQLVESGGGLVQAGGSLRLSCAASGFIFVQYAMGWYRQAPGKERELVAAITKSGGRTYYADSVKGRFTISRDNAKNTVYLQMNSLKPEDTAVYYCAALGNGNFPTVDYWGQGTQVTVSS :: high polyreactivity
QVQLVESGGGLVQAGGSLRLSCAASGRIFRYNAMGWYRQAPGKERELVAAITGCGGSTYYADSVKGRFTISRDNAKNTVYLQMNSLKPEDTAVYYCNTYTYYSRMDYWGQGTQVTVSS :: high polyreactivity
QVQLVESGGGIVQAGGSLRLSCAASGRTFPGYAMGWSRQAPGKERELVATITFSDGSTYYADSVKGRFTISRDNAKNTVYLQMNSLKPEDTAVYYCNARRSYFLRYGVNYWGQGTQVTVSS :: low polyreactivity

Read the next record carefully.
State the recorded polyreactivity (PSR sort gate) for this entry: `QVQLVESGGGLVQAGGSLRLSCAASGAIFFSYAMGWYRQAPGKERELVAAIRTNGGTTYYADSVKGRFTISRDNAKNTVYLQMNSLKPEDTAVYYCAALPGGYYDRGEYDYWGQGTQVTVSS`
low polyreactivity

---

experiment: yeast display, Sf9 membrane polyspecificity reagent, FACS + sequencing; frameworks hold sequencing errors
endpoint: polyreactivity (PSR sort gate)

QVQLVESGGGLVQAGGSLRLSCAASGYTFTSNAMGWYRQAPGKERELVAAITNVGSTNYADSVKGRFTISRDNAKNTVYLQMNSLKPEDTAVYYCAADWDAVYLQTADYDYWGQGTQVTVSS :: low polyreactivity
QVQLVESGGGLVQAGGSLRLSCAASGRTSFWNAMGWYRQAPGKERELVSAISASVGRTYYADSVKGRFTISRDNAKNTVYLQMNSLKPEDTAVYYSAKVYHAGTGYPSLGLDYWGQGTQVTVSS :: low polyreactivity
QVQLVESGGGLVQAGGSLRLSCAASGFISAYYALGWSRQAPGKERELVAGITRGGNTYYADSVKGRFTISRDNAKNTVYLQMNSLKPEDTAVYYCAAEGSHNSEYWGQVTQVTVSS :: high polyreactivity
QVQLVESGGGLVQAGGSLRLSCAASGLIFTYYAMGWYRQAPGKERELVAAISGRGGSTYYADSVKGRFTISRDNAKNTVYLQMNSLKPEDTAVYYCAAVRWAGYVSDYGYWGQGTQVTVSS :: high polyreactivity
QVQLVESGRGLVQAGGSLRLSCAASGLILGVNVMGWYRQAPGKERELVAAISGGGRTYYADSVKGRFTISRDNAKNTVYLQMNSLKPDDTAVYYCATVRRRLSLTYDYWGQVTQVTVSS :: high polyreactivity
QVQLVESGGGIVQAGGSLRLSCAASGSIFHGYAMGWYRQAPGKERELVASITWNGGSTYYADSVKGRFTISRDNAKNTVYLQMNSLKPEDTAVYYCATSKWRGRGRTYDYWGQGTQVTVSS :: high polyreactivity
QVQLEESGGGLVQAGGSLRLSCAASGSIIGPNAMGWYRQAPGKDRELVAAITSGSSTKYADSVKGRFTISRDNAMNTVYLQMNSLKPEDTAVDYCAASGTTTWKYGFWGQGTQVTVSS :: low polyreactivity
QVQLVESGGGLVQAGGSLRLSCAAYGRIFRYYAMGWYRQAPGKERELVAGISWRGSSTYYADSVKGRFTLSRDNAKNTVYLQMNSLKPEDTAVYYCNRDQSNIPVTGVRFYYWGQGTQVTVSS :: high polyreactivity
QVQLVESGGGLVQAGGSLRLSCAASGRIFPPNAMGWYRQAPGKERELVAGITPSGDTTYYADSVKGRFTISRDNAKNTVYIQMNSLKPEDTAVYYCAKDEVYADDRSALFDYWGQGTQVTVSS :: low polyreactivity
QVQLVVSRGGLVQAGGSLRLSCAASGSTFYYNAMGWYRQAPGKERELVAAISRSGGRTYYADSVKGRFTISRDNAKNTVYLQMNSLKPEDTAVYYCAAEYFDWWVTYDYWGQGTQVTVSS :: high polyreactivity

State the recorded polyreactivity (PSR sort gate) for this entry: `QVQLVESGGGLVQAGGSLRLSCAASGSIFWYYAMGWYRQAPGKERELVASITSAGSTNYADSVKGRFTISRDNAKNTVYLQMNSLKPEDTAVYYCNTDDDSSSTGYYSWGQGTQVTVSS`
low polyreactivity

And the next one, `QVQLVESGGGLVQAGGSLRLSCAASGRTFRNNAMGWYRQAPGKERELDAAIKGSGGSTYYADSVKGRFTISRDNAKNTVYLQMNSLKPEDTAVYYCAKAVVPWGPNFRPNHTRGYYWGQGTQATVSS` ?
low polyreactivity

And the next one, `QVQLVQSGGGLVQAGGSLRLSCAASGSIFYDYAMGWYRQAPGKERELVAAINSGVSTSYADSVKGRFTISRDNAKNTVYLQMNSLKPEDTAVYYCAKDGSSPSPWYGGFGYWGQGTQVTVSS` ?
low polyreactivity

And the next one, `QVQLVESGVGLVQAGGSLRLSCAASGSTFSYYAMGWYRQAPGKERELVAAITRSGGRTYYADSVKGRFTISRDNAKNTVYLQMNSLKPEDTAVYYCAALSVGTRRDYWGQGTQVTVSS` ?
low polyreactivity

And the next one, `QVQLVESGGGLVQAGGSLSLSCAASGGIFFIYTMGWKRQAPGKEREMVAAITSTGDTKYADSVKGRFTISRDNAKTTVYLQMNSLKPEDTAVYYCNKDNGTRGKGYDYWGQGTQVTVSS` ?
low polyreactivity

And the next one, `QVQLVESGGGLVQAGGSLRLSCAASGSTSSVMLWMGWYRQAPGKEREFVAGISWIDATTYYADSVKGRFTISRDNAKNTVYLQMNSLKPEDTAVYYCAADVRWLWYWYGRYDYWGQGTQVTVSS` ?
high polyreactivity

And the next one, `QVQLVESGGGLVQAGGSLRLSCAASGSIFYTYAMGWYRQAPGKERELVADISSRGGSTYYADSVKGRFTISRDNAKNTVYLQMNSLKPEDTAVYYCNAPQGFVWRYSSWGPYDYWGQGTQVTVSS` ?
high polyreactivity

Values compiled from the nanobody polyreactivity screen of Harvey et al. (2022).
